Target: TNF-alpha (Homo sapiens, UniProt P01375 P01375:77-233)
Sequence (P01375 77-233, one chain of several): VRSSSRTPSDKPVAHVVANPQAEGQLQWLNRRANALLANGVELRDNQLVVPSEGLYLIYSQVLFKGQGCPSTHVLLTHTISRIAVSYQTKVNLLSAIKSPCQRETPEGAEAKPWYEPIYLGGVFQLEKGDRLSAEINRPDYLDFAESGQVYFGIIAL
Assay: filter; 2'F version
Conditions: tags: Genzyme or R&D Systems; chain copies: 3 inferred
pKd: −log10 of the molar value.
readout-kind: pKd

TNF 7C 2'F (ssRNA, 2'-F all C and U) RNA: GGGAGCUCAGAAUAAACGCUCAACAGGUGGCACCGCCCUUCCAACACGGUGCGUUCGACAUGAGGCCCGGAUCCGGC ... 6.35
TNF 23A 2'F (ssRNA, 2'-F all C and U) RNA: GGGAGCUCAGAAUAAACGCUCAACCUCAUCCUCGCACGCCAUCGCCUGAACCGUUCGACAUGAGGCCCGGAUCCGGC ... 6.40
TNF 6A 2'F (ssRNA, 2'-F all C and U) RNA: GGGAGCUCAGAAUAAACGCUCAACCACUGGCUAGGAACUCGAGUACUGGGUGGUUCGACAUGAGGCCCGGAUCCGGC ... 7.13
TNF 3A 2'F (ssRNA, 2'-F all C and U) RNA: GGGAGCUCAGAAUAAACGCUCAAGAUCGACGCAUCGAGUCGCCUCAUCGCUCCUUCGACAUGAGGCCCGGAUCCGGC ... 6.21
TNF 25A 2'F (ssRNA, 2'-F all C and U) RNA: GGGAGCUCAGAAUAAACGCUCAAGGCCGCAUGCCCCUCCUAACAGCAUGCAACUUCGACAUGAGGCCCGGAUCCGGC ... 6.35
